Molecular target: UniProt Q13164
Sequence (Q13164 whole entry, looked up): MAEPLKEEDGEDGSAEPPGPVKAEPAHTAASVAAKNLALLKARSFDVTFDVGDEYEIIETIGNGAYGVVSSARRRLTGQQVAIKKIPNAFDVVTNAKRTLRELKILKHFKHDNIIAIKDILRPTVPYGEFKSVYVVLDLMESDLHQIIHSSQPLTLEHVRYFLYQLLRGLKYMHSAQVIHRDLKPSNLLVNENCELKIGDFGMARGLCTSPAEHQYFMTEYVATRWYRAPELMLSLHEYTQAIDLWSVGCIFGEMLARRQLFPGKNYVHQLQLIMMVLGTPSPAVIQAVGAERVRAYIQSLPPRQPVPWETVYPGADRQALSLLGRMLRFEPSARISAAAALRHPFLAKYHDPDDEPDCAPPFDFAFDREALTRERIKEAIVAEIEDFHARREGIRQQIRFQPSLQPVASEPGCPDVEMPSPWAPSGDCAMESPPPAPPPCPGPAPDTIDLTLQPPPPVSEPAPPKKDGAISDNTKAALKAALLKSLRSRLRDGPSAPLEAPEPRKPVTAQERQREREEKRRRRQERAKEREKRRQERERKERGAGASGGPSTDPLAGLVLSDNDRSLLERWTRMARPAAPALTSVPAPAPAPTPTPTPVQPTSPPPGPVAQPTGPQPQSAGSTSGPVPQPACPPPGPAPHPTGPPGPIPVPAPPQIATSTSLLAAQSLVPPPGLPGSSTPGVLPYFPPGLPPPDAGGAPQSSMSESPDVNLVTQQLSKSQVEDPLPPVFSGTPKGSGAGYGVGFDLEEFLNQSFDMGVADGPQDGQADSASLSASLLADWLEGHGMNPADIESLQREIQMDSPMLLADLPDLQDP
Assay: Caliper, Mobility shift assay off-chip
Details: compound 0.2 µM
recorded.endpoint: inhibition (%)
Give the number; % is assumed, so skip it.

// worked examples, inhibition included
* Cc1ccc(Nc2nccc(N(C)c3ccc4c(C)n(C)nc4c3)n2)cc1S(N)(=O)=O | -7.6
* CNC(=O)c1cc(Oc2ccc(NC(=O)Nc3ccc(Cl)c(C(F)(F)F)c3)cc2)ccn1 | -8.8

Return inhibition (reported value) for this compound: CCN(CC)CCNC(=O)c1c(C)[nH]c(/C=C2\C(=O)Nc3ccc(F)cc32)c1C
-5.7

Return reported inhibition. Input compound: COc1cc2c(Oc3ccc4[nH]c(C)cc4c3F)ncnc2cc1OCCCN1CCCC1
-6.2
